Each entry below carries its recorded PT.
Species: Rattus norvegicus
procedure_summary: Open TG-GATES - Regimen: Single
Assay type: toxicity, organism-based, Sprague-Dawley
Set-up: regimen Single, gender Male, age 6 weeks
assay_setup: in vivo, po, 0 mg/kg, 9 h, tissue Blood, route gavage, dose level Control
Report the figure in s without appending any unit label.

Form field PT, entry C#C[C@]1(O)CC[C@H]2[C@@H]3CCC4=Cc5oncc5C[C@]4(C)[C@H]3CC[C@@]21C : 16.3

Form field PT, entry COc1cc([C@@H]2c3cc4c(cc3[C@@H](O[C@@H]3O[C@@H]5CO[C@@H](C)O[C@H]5[C@H](O)[C@H]3O)[C@H]3COC(=O)[C@H]23)OCO4)cc(OC)c1O [ETOPOSIDE] : 10.9

Form field PT, entry CN1C(C(=O)Nc2ccccn2)=C(O)c2sc(Cl)cc2S1(=O)=O : 12.5

Form field PT, entry Cc1cccc(Nc2ccccc2C(=O)O)c1C : 12.8

Form field PT, entry C1CCC(C(CC2CCCCN2)C2CCCCC2)CC1 (stereo unspecified) : 15.6

Form field PT, entry CC(=O)Nc1nnc(S(N)(=O)=O)s1 [ACETAZOLAMIDE] : 16.8

---

Organism: Rattus norvegicus
procedure_summary: Open TG-GATES - Regimen: Daily Repeat
Assay type: toxicity, organism-based, Sprague-Dawley
Set-up: regimen Daily Repeat, gender Male, age 6 weeks
assay_setup: in vivo, po, 0 mg/kg, 72 h, tissue Blood, route gavage, dose level Control, time 3 day
Each entry below carries its recorded Hb.
Report the figure in g/dL without appending any unit label.

// known answers, use as guide
[[record]]
compound = "C#C[C@]1(O)CC[C@H]2[C@@H]3CCC4=Cc5oncc5C[C@]4(C)[C@H]3CC[C@@]21C"
unit_name = "g/dL"
recorded_number = 13.4

[[record]]
compound = "CC(CN1c2ccccc2Sc2ccccc21)N(C)C (stereo not drawn)"
unit_name = "g/dL"
recorded_number = 13.2


Form field Hb, entry CCOC(=O)[C@H](CCc1ccccc1)N[C@@H](C)C(=O)N1CCC[C@H]1C(=O)O : 13.2

Form field Hb, entry Clc1c(Cl)c(Cl)c(Cl)c(Cl)c1Cl : 13.7

Form field Hb, entry CN1C(C(=O)Nc2ccccn2)=C(O)c2sc(Cl)cc2S1(=O)=O : 12.9

Form field Hb, entry Cc1cccc(Nc2ccccc2C(=O)O)c1C : 13.4

Form field Hb, entry CN(C)[C@@H]1C(O)=C(C(N)=O)C(=O)[C@@]2(O)C(O)=C3C(=O)c4c(O)cccc4[C@@](C)(O)[C@H]3C[C@@H]12 : 13.6

Form field Hb, entry C1CCC(C(CC2CCCCN2)C2CCCCC2)CC1 (stereo not drawn) : 13.2

---

Each entry below carries its recorded Lym.
Organism: Rattus norvegicus
procedure_summary: Open TG-GATES - Regimen: Single
Format: toxicity, organism-based, Sprague-Dawley
Design: regimen Single, gender Male, age 6 weeks
assay_setup: in vivo, po, 0 mg/kg, 6 h, tissue Blood, route gavage, dose level Control
Report the figure in % without appending any unit label.

// known answers, use as guide
[[record]]
molecule = "Cc1cccc(Nc2ccccc2C(=O)O)c1C"
recorded_number = 80.6

[[record]]
molecule = "CN(C)[C@@H]1C(O)=C(C(N)=O)C(=O)[C@@]2(O)C(O)=C3C(=O)c4c(O)cccc4[C@@](C)(O)[C@H]3C[C@@H]12"
recorded_number = 81.6

[[record]]
molecule = "Clc1c(Cl)c(Cl)c(Cl)c(Cl)c1Cl"
recorded_number = 79.6


Kindly review the next molecule as well.
Form field Lym, entry C1CCC(C(CC2CCCCN2)C2CCCCC2)CC1 (centres undefined) : 79.8

Hello, the source for this data is ChEMBL document CHEMBL3885861, in case you need it.
